Listed compounds paired with reported GI50
# Test system: UO-31 renal
# Protocol Details: NCI tumour cell line growth inhibition, 48 h
Parameter: GI50

>>> test_result("C/C=C(/C)C(=O)OC1C=C(CO)C(=O)C(OC(=O)C(C)(O)C(C)Cl)C1C(C)C (stereo unspecified)")
"1340 nM"
>>> test_result("Cc1nnc(-c2ccc(C)c(-c3ccc(C(=O)NCc4ccc(Cl)cc4)cc3)c2)o1")
"4370 nM"
>>> test_result("COc1cc(/C=C\\c2cc(/C=C\\c3ccc(O)c(OC)c3)n(C(=O)CNc3ccc(Cl)cc3)n2)ccc1O")
"1210 nM"
>>> test_result("CC(=O)C1CCC2C3CC=C4CC(SC(=N)N)CCC4(C)C3CCC12C (stereo unspecified)")
"2360 nM"
>>> test_result("O=C(Nc1cccc(Cl)c1)c1cc(N=Nc2ccc([N+](=O)[O-])cc2Cl)ccc1O")
"2160 nM"
>>> test_result("Cc1cc(NNC(=O)c2ccccc2O)nc(Nc2nc3ccccc3o2)n1")
"622 nM"

----------
Listed compounds paired with reported GI50
# Tested on: HS 578T breast
# Protocol Details: NCI tumour cell line growth inhibition, 48 h
Parameter: GI50

>>> test_result("O=S(=O)(Nc1ccc2ccccc2c1)c1ccc(-c2cnc(C3CC3)o2)cc1")
"0.811 µM"
>>> test_result("CCOC(=O)c1csc(NC(=O)COc2cccc(/C=C3\\CSc4ccccc4C3=O)c2)n1")
"1.45 µM"
>>> test_result("O=C(Nc1cccc(Cl)c1)c1cc(N=Nc2ccc([N+](=O)[O-])cc2Cl)ccc1O")
"1.95 µM"
>>> test_result("O=C(NNC(=S)Nc1ccccc1)c1ccccn1")
"23.7 µM"
>>> test_result("COc1cc2ncn(-c3cc(OCc4ccccc4C(F)(F)F)c(C(C)=O)s3)c2cc1OC")
"19.3 µM"
>>> test_result("O=C(Cn1c(C(=O)c2ccccc2)nc2ccccc21)c1ccc(F)cc1")
"11.5 µM"
>>> test_result("COc1ccc2c(c1)N(CCO)C1=C(C(=O)OC1)C2c1ccccc1 (stereo not given)")
"1.39 µM"
>>> test_result("COc1ccc(CNc2cnc3cc(N)cc(N)c3n2)cc1")
"24.2 µM"
>>> test_result("CC[C@]12C=CCN3CC[C@@]4(c5ccc(OC)cc5N(C)[C@H]4[C@@](O)(C(=O)OC)[C@@H]1OC(=O)CCC(=O)N[C@H](Cc1c[nH]c4ccccc14)C(=O)OC)[C@@H]32")
"5.52 µM"
>>> test_result("O=C(O)Cn1c2c(c3c(O)cccc31)C(=O)c1ccccc1-2")
"> 100 µM"

----------
Listed compounds paired with reported TGI
# Tested on: NCI-H460 lung
# Protocol Details: NCI tumour cell line growth inhibition, 48 h
Parameter: TGI

>>> test_result("CCCCCCCCCOC(=S)NCCCCC")
"64 µM"
>>> test_result("Cc1cc(C)n(C(=O)CSc2nnc(SCC(=O)n3nc(C)cc3C)s2)n1")
"> 100 µM"
>>> test_result("CC1=C2[C@H](c3ccccc3)C3C=CC2(c2ccccc23)N(C(=O)C(c2ccccc2)c2ccccc2)C1=O (some centres not stated)")
"> 100 µM"
>>> test_result("O=C1NC(S(=O)(=O)O)=NNC12c1ccccc1-c1ccccc12")
"> 10 µM"
>>> test_result("COc1cc(-c2ccc(NC(=O)NC3CC3)c(OC)c2)ccc1NC(=O)NC1CC1")
"15.7 µM"
>>> test_result("C=C1CCC2C3(C)COC(c4ccc(Cl)cc4)OC3CCC2(C)C1/C=C/C1=CCOC1=O (configuration not stated)")
"> 100 µM"
>>> test_result("Cc1cc2c(cc1C)C(=O)/C(=N/Nc1ccc(F)cc1)CCO2")
"> 100 µM"
